- TEST DESCRIPTION: Anticancer human tumor 997537-175-T-J1-PDC patient-derived colon adenocarcinoma cell line growth inhibition [POLQ]
- ASSAY SETUP: 997537-175-T-J1-PDC complex spheroid viability, combination with POLQ inhibitors; second compound 3.16 µM; first compound 3.16 µM; hits give low values
MEASURED PARAMETER: viability, T/C (%)
# unit: % | format: bare number

**Query** Could you tell me which viability, T/C is on file for O=C(Nc1ccc(O)c(NS(=O)(=O)c2ccc(F)cc2)c1)c1ccc(-c2ccccc2)cc1 + Nc1ccc(C#CCN(C(=O)Cc2ncc(C(F)(F)F)cc2C(F)(F)F)c2ccc(F)cc2)nn1 ?
**Result** 102

**Query** Another compound to look at: COc1cc(C2c3cc4c(cc3C(OC3OC5COC(C)OC5C(O)C3O)C3COC(=O)C23)OCO4)cc(OC)c1O (stereo not given) + Nc1ccc(C#CCN(C(=O)Cc2ncc(C(F)(F)F)cc2C(F)(F)F)c2ccc(F)cc2)nn1
**Result** 57.8

**Query** Queued: O=C(Nc1ccc(O)c(NS(=O)(=O)c2ccc(F)cc2)c1)c1ccc(-c2ccccc2)cc1 + Cc1cccc(N(C)C(=O)C2C(O)CCN2c2nc(C)cc(C(F)(F)F)c2C#N)c1
**Result** 106

**Query** What do you get for CC1COCCN1c1cc(C2(S(C)(=N)=O)CC2)nc(-c2ccnc3[nH]ccc23)n1 (stereo not given) + COC1C(OC(N)=O)C(O)C(Oc2ccc3c(O)c(NC(=O)c4ccc(O)c(CC=C(C)C)c4)c(=O)oc3c2C)OC1(C)C ?
**Result** 79.2

**Query** Likewise for COc1cc2cc(C(=O)CCC(=O)O)sc2cc1OC + Nc1ccc(C#CCN(C(=O)Cc2ncc(C(F)(F)F)cc2C(F)(F)F)c2ccc(F)cc2)nn1 ?
**Result** 100

---

Please respond with reported viability, T/C for every item in the list.
- TEST DESCRIPTION: Anticancer human tumor 997537-175-T-J1-PDC cell line growth inhibition [POLQ];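 also: luminescence signal used as a surrogate for viable cells; spheroids exposed to drugs for seven days before readout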
- ASSAY SETUP: 997537-175-T-J1-PDC complex spheroid viability, combination with POLQ inhibitors; second compound 0.316 µM; first compound 0.316 µM; hits give low values
Numeric only. Scale: %

**Query** Quick one: viability, T/C of O=C(Nc1ccc(O)c(NS(=O)(=O)c2ccc(F)cc2)c1)c1ccc(-c2ccccc2)cc1 + Cc1cccc(N(C)C(=O)C2C(O)CCN2c2nc(C)cc(C(F)(F)F)c2C#N)c1 ?
**Result** 111

**Query** Please give the result for O=c1[nH]cc(F)c(=O)[nH]1 + COC1C(OC(N)=O)C(O)C(Oc2ccc3c(O)c(NC(=O)c4ccc(O)c(CC=C(C)C)c4)c(=O)oc3c2C)OC1(C)C too.
**Result** 105

**Query** Proceed to Nc1ccn(C2OC(CO)C(O)C2(F)F)c(=O)n1 (configuration not stated) + Nc1ccc(C#CCN(C(=O)Cc2ncc(C(F)(F)F)cc2C(F)(F)F)c2ccc(F)cc2)nn1
**Result** 81.8

**Query** Same thing, different compound: COc1cccc2c1C(=O)c1c(O)c3c(c(O)c1C2=O)CC(O)(C(=O)CO)CC3OC1CC(N)C(O)C(C)O1 (configuration not stated) + Nc1ccc(C#CCN(C(=O)Cc2ncc(C(F)(F)F)cc2C(F)(F)F)c2ccc(F)cc2)nn1
**Result** 98.8

**Query** And then C=CC(=O)N1CCN(c2nc(=O)n(-c3c(C)ccnc3C(C)C)c3nc(-c4c(O)cccc4F)c(F)cc23)C(C)C1 (configuration not stated) + Nc1ccc(C#CCN(C(=O)Cc2ncc(C(F)(F)F)cc2C(F)(F)F)c2ccc(F)cc2)nn1 , what is it?
**Result** 103

**Query** Now try CC(C)n1c(=O)n(C)c2cnc3cc(F)c(-c4ccc(OCCCN5CCCCC5)nc4)cc3c21 + COC1C(OC(N)=O)C(O)C(Oc2ccc3c(O)c(NC(=O)c4ccc(O)c(CC=C(C)C)c4)c(=O)oc3c2C)OC1(C)C .
**Result** 114

**Query** // query: COc1ccc([C@@H](O)c2cc(-c3ncnc4cc(N5CCOCC5)ccc34)c(F)cc2Cl)nn1 + COC1C(OC(N)=O)C(O)C(Oc2ccc3c(O)c(NC(=O)c4ccc(O)c(CC=C(C)C)c4)c(=O)oc3c2C)OC1(C)C
**Result** 92.5

The values you see were collected from PubChem BioAssay AID1963825.
